assayTarget: NAD-dependent protein deacylase sirtuin-6 (Homo sapiens) (UniProt Q8N6T7)
Sequence (Q8N6T7 whole entry, the tested form may be a part): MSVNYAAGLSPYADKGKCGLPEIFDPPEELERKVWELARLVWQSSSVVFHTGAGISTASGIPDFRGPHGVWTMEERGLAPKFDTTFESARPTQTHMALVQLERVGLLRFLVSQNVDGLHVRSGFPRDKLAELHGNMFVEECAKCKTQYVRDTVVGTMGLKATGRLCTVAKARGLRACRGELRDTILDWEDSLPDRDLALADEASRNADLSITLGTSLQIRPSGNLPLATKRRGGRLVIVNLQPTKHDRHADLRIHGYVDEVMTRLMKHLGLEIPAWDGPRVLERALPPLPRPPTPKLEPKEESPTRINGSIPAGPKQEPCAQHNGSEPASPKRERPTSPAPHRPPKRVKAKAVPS
experimentDescription: Substrate activity at human N-terminal His-tagged SIRT6 (1 to 355 residues) expressed in Escherichia coli at 0.5 uM measured after 2 hrs in presence of NAD+ and trypsin by fluorescence assay
Where a SMILES comes first, the peptide text is derived from it. The star is where a group is joined. AMC = Cc1cc(=O)oc2cc(N*)ccc12; Decanoyl = CCCCCCCCCC(=O)*
measuredParameter: Activity (RFU)

• CCCCCCCCCC(=O)NCCCC[C@H](NC(=O)[C@H](CCCNC(=N)N)NC(=O)[C@H](C)NC(=O)[C@@H](NC(C)=O)[C@@H](C)O)C(=O)Nc1ccc2c(C)cc(=O)oc2c1 (Ac-TARK(Decanoyl)-{AMC}) = 0.48

[a] CC(=O)NCCCC[C@H](NC(=O)[C@H](CCCNC(=N)N)NC(=O)[C@H](C)NC(=O)[C@@H](NC(C)=O)[C@@H](C)O)C(=O)Nc1ccc2c(C)cc(=O)oc2c1 (Ac-TARK(Ac)-{AMC})
[b] CC(=O)NCCCC[C@H](NC(=O)[C@H](CC(C)C)NC(=O)[C@H](CCCCN)NC(=O)[C@H](Cc1ccc(O)cc1)NC(C)=O)C(=O)Nc1ccc2c(C)cc(=O)oc2c1 (Ac-YKLK(Ac)-{AMC})
Given the listed records, identify the one among a and b with higher Activity. API: response body contains the label of the selected item.
b

---

assayTarget: NAD-dependent protein deacetylase sirtuin-2 (Homo sapiens) (UniProt Q8IXJ6)
Sequence (Q8IXJ6 whole entry, the tested form may be a part): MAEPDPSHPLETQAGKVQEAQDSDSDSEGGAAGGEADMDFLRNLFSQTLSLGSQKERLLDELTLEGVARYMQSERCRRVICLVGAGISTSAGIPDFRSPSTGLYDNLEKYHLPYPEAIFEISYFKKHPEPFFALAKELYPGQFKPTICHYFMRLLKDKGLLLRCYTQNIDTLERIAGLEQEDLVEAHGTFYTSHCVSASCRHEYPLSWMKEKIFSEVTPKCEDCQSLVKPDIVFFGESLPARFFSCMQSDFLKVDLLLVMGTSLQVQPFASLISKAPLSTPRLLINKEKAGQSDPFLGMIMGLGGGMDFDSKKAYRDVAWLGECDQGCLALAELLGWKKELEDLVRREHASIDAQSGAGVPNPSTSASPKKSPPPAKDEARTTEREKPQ
experimentDescription: Substrate activity at human N-terminal His-tagged SIRT2 (56 to 356 residues) expressed in Escherichia coli at 0.5 uM measured after 2 hrs in presence of NAD+ and trypsin by fluorescence assay
*1 amine or outer side, *2 acyl side, *3 side chain or, on linkers, in order; H or OH if unused. Where a SMILES comes first, the peptide text is derived from it. The star is where a group is joined. AMC = Cc1cc(=O)oc2cc(N*)ccc12; Suc = O=C(CCC(=O)[*:2])[*:1]; Decanoyl = CCCCCCCCCC(=O)*
measuredParameter: Activity (RFU)

* CCCCCCCCCC(=O)NCCCC[C@H](NC(=O)[C@H](CCCNC(=N)N)NC(=O)[C@H](CC(C)C)NC(=O)[C@H](CC(=O)O)NC(C)=O)C(=O)Nc1ccc2c(C)cc(=O)oc2c1 (Ac-DLRK(Decanoyl)-{AMC}) | 0.26

[I] CCCCCCCCCC(=O)NCCCC[C@H](NC(=O)[C@@H](NC(=O)[C@H](CO)NC(=O)[C@H](CO)NC(C)=O)[C@@H](C)CC)C(=O)Nc1ccc2c(C)cc(=O)oc2c1 (Ac-SSIK(Decanoyl)-{AMC})
[II] CC(=O)N[C@@H](CC(C)C)C(=O)NCC(=O)N[C@@H](CO)C(=O)N[C@@H](CCCCNC(=O)CCC(=O)O)C(=O)Nc1ccc2c(C)cc(=O)oc2c1 (Ac-LGSK(Suc)-{AMC})
Pick the one with the larger Activity: I vs II Write the label of whichever entry you select.
I

---

assayTarget: NAD-dependent protein deacetylase sirtuin-1 (Homo sapiens) (UniProt Q96EB6)
Sequence (Q96EB6 whole entry, the tested form may be a part): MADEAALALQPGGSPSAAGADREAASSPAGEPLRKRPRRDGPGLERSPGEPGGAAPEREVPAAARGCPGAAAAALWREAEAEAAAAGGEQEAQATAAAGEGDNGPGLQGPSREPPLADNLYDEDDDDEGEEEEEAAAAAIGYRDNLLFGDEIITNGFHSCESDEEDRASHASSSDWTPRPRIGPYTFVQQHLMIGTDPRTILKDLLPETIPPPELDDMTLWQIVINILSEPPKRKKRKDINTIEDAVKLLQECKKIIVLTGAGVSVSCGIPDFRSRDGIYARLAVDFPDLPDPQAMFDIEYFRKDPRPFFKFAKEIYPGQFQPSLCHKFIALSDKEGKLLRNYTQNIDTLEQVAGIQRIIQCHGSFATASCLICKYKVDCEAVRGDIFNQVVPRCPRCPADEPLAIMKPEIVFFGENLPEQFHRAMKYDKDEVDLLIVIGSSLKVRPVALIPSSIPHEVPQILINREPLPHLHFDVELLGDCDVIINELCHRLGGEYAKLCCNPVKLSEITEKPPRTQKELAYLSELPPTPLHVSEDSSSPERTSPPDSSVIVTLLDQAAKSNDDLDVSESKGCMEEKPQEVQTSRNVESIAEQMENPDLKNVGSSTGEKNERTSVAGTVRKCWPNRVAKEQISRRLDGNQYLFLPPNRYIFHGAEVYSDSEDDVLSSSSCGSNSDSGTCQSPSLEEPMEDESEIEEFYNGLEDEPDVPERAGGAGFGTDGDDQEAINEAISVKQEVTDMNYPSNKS
experimentDescription: Substrate activity at human N-terminal His-tagged SIRT1 (183 to 664 residues) expressed in Escherichia coli at 5 uM measured after 2 hrs in presence of NAD+ and trypsin by fluorescence assay
*1 amine or outer side, *2 acyl side, *3 side chain or, on linkers, in order; H or OH if unused. Where a SMILES comes first, the peptide text is derived from it. The star is where a group is joined. AMC = Cc1cc(=O)oc2cc(N*)ccc12; Suc = O=C(CCC(=O)[*:2])[*:1]; Decanoyl = CCCCCCCCCC(=O)*
measuredParameter: Activity (RFU)

• CC(=O)NCCCC[C@H](NC(=O)[C@H](CCCNC(=N)N)NC(=O)[C@H](C)NC(=O)[C@@H](NC(C)=O)[C@@H](C)O)C(=O)Nc1ccc2c(C)cc(=O)oc2c1 (Ac-TARK(Ac)-{AMC}) = 0.33

[a] CC[C@H](C)[C@H](NC(C)=O)C(=O)N[C@@H](CCCNC(=N)N)C(=O)N[C@H](C(=O)N[C@@H](CCCCNC(=O)CCC(=O)O)C(=O)Nc1ccc2c(C)cc(=O)oc2c1)[C@@H](C)CC (Ac-IRIK(Suc)-{AMC})
[b] CC(=O)N[C@@H](CC(C)C)C(=O)NCC(=O)N[C@@H](CO)C(=O)N[C@@H](CCCCNC(=O)CCC(=O)O)C(=O)Nc1ccc2c(C)cc(=O)oc2c1 (Ac-LGSK(Suc)-{AMC})
[c] CCCCCCCCCC(=O)NCCCC[C@H](NC(=O)[C@H](CC(=O)O)NC(=O)[C@@H](NC(=O)[C@H](CCC(=O)O)NC(C)=O)[C@@H](C)O)C(=O)Nc1ccc2c(C)cc(=O)oc2c1 (Ac-ETDK(Decanoyl)-{AMC})
[d] CCCCCCCCCC(=O)NCCCC[C@H](NC(=O)[C@H](CCCNC(=N)N)NC(=O)[C@H](CC(C)C)NC(=O)[C@H](CC(=O)O)NC(C)=O)C(=O)Nc1ccc2c(C)cc(=O)oc2c1 (Ac-DLRK(Decanoyl)-{AMC})
Order the 4 compounds from highest to lowest Activity. Answer by listing the labels in the order asked for.
c, d, a, b

Every entry's value here was drawn from ChEMBL document CHEMBL4680222.
